- system-under-test: human recombinant I-domain (rI-domain) of CD11b (Homo sapiens, UniProt P11215)
- Construct: made in house
- Sequence (P11215 150-328 limits assumed): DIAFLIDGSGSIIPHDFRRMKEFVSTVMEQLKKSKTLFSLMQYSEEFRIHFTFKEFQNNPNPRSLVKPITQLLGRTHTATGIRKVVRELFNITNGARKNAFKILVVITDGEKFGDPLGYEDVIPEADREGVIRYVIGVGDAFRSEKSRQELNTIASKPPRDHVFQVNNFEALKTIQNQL
- procedure-summary: Surface plasmon resonance binding to human rI-domain (KD)
measure: Kd (nM)
Just the number in nM, nothing appended.

Requested field: Kd. Item: O=C(O)c1ccccc1Nc1cccc(C(F)(F)F)c1
6.66
